Assay: Kinetic study: plasma kinetics of TMC278 after single IM or SC injection of a nanosuspension
Type: in vivo, male beagle dogs
Conditions: male, beagle, dog, plasma, sc, 5 mg/kg, plasma concentration of TMC278, single SC 5 mg/kg TMC278 nanosuspension, dog 19349, 240 h (d10)
measure.name: concentration at 240 h
The number alone won't do; follow it with the unit.

Query: Looking for the measured concentration at 240 h of Cc1cc(C=CC#N)cc(C)c1Nc1ccnc(Nc2ccc(C#N)cc2)n1 [TMC278] , can you help?
Response: 42 ng/mL

###

Test: Kinetic study: plasma kinetics of TMC278 after single IM or SC injection of a nanosuspension
Assay type: in vivo, male beagle dogs
Details: male, beagle, dog, plasma, intramuscular, 5 mg/kg, plasma concentration of TMC278, single IM 5 mg/kg TMC278 nanosuspension, dog 17264, 240 h (d10)
measure.name: concentration at 240 h
Quick note: unit goes after the number.

Query: I am curious: what concentration at 240 h value has been reported for Cc1cc(C=CC#N)cc(C)c1Nc1ccnc(Nc2ccc(C#N)cc2)n1 [TMC278] ?
Response: 56.7 ng/mL

###

Experiment: Kinetic study: plasma kinetics of TMC278 after single IM or SC injection of a nanosuspension
Assay type: in vivo, male beagle dogs
Conditions: male, beagle, dog, plasma, intramuscular, 5 mg/kg, plasma concentration of TMC278, single IM 5 mg/kg TMC278 nanosuspension, dog 17264, 144 h (d6)
measure.name: concentration at 144 h
Answer with the value and then the unit.

Query: Looking for the measured concentration at 144 h of `Cc1cc(C=CC#N)cc(C)c1Nc1ccnc(Nc2ccc(C#N)cc2)n1` , can you help?
Response: 86.2 ng/mL

###

Experiment: Kinetic study: plasma kinetics of TMC278 after single IM or SC injection of a nanosuspension
Type: in vivo, male beagle dogs
Conditions: male, beagle, dog, plasma, sc, 5 mg/kg, plasma concentration of TMC278, single SC 5 mg/kg TMC278 nanosuspension, dog 19129, 1200 h (d50)
measure.name: concentration at 1200 h (ng/mL)
The reply should contain only the number, in ng/mL.

Query: Suppose we examine the compound `Cc1cc(C=CC#N)cc(C)c1Nc1ccnc(Nc2ccc(C#N)cc2)n1` ; what concentration at 1200 h value has been reported?
Response: 6.37

###

Assay: Kinetic study: plasma kinetics of TMC278 after single IM or SC injection of a nanosuspension
Format: in vivo, male beagle dogs
Conditions: male, beagle, dog, plasma, intramuscular, 5 mg/kg, plasma concentration of TMC278, single IM 5 mg/kg TMC278 nanosuspension, dog 17264, 1536 h (d64)
measure.name: concentration at 1536 h
Please answer using the number first and the unit second.

Query: So what's the measured concentration at 1536 h for this one? `Cc1cc(C=CC#N)cc(C)c1Nc1ccnc(Nc2ccc(C#N)cc2)n1`
Response: 2.84 ng/mL

###

Test: Kinetic study: plasma kinetics of TMC278 after single IM or SC injection of a nanosuspension
Format: in vivo, male beagle dogs
Details: male, beagle, dog, plasma, im, 5 mg/kg, single IM 5 mg/kg TMC278 nanosuspension, dog 18186; read-out: AUC0-312 h
measure.name: AUC(0-t) (ng·h/mL)
Write the answer as a number in ng·h/mL, unit excluded.

Query: Which measured AUC(0-t) value corresponds to `Cc1cc(C=CC#N)cc(C)c1Nc1ccnc(Nc2ccc(C#N)cc2)n1` ?
Response: 26600

###

Assay: Kinetic study: plasma kinetics of TMC278 after single IM or SC injection of a nanosuspension
Format: in vivo, male beagle dogs
Details: male, beagle, dog, plasma, sc, 5 mg/kg, plasma concentration of TMC278, single SC 5 mg/kg TMC278 nanosuspension, dog 19129, 8 h
measure.name: concentration at 8 h (ng/mL)
Kindly answer with a numeric value in ng/mL, unit omitted.

Query: For the compound `Cc1cc(C=CC#N)cc(C)c1Nc1ccnc(Nc2ccc(C#N)cc2)n1` , what concentration at 8 h is on record?
Response: 27.6

###

Experiment: Kinetic study: plasma kinetics of TMC278 after single IM or SC injection of a nanosuspension
Type: in vivo, male beagle dogs
Conditions: male, beagle, dog, plasma, intramuscular, 5 mg/kg, plasma concentration of TMC278, single IM 5 mg/kg TMC278 nanosuspension, mean of 2 dogs, 240 h (d10)
measure.name: concentration at 240 h (ng/mL)
// note: answer is a bare numeric in ng/mL

Query: Need concentration at 240 h, item `Cc1cc(C=CC#N)cc(C)c1Nc1ccnc(Nc2ccc(C#N)cc2)n1`
Response: 59.6

###

Assay: Kinetic study: plasma kinetics of TMC278 after single IM or SC injection of a nanosuspension
Assay type: in vivo, male beagle dogs
Conditions: male, beagle, dog, plasma, sc, 5 mg/kg, plasma concentration of TMC278, single SC 5 mg/kg TMC278 nanosuspension, dog 19349, 1704 h (d71)
measure.name: concentration at 1704 h (ng/mL)
Please reply with the bare figure in ng/mL and do not write the unit itself.

Query: Given the entry Cc1cc(C=CC#N)cc(C)c1Nc1ccnc(Nc2ccc(C#N)cc2)n1 [TMC278] , report its measured concentration at 1704 h.
Response: 3.57

###

Assay: Kinetic study: plasma kinetics of TMC278 after single IM or SC injection of a nanosuspension
Format: in vivo, male beagle dogs
Settings: male, beagle, dog, plasma, intramuscular, 5 mg/kg, plasma concentration of TMC278, single IM 5 mg/kg TMC278 nanosuspension, dog 18186, 1200 h (d50)
measure.name: concentration at 1200 h (ng/mL)
State the answer as a number, implicitly in ng/mL.

Query: I'd like to know its concentration at 1200 h. The compound in question is Cc1cc(C=CC#N)cc(C)c1Nc1ccnc(Nc2ccc(C#N)cc2)n1 [TMC278]
Response: 3.25

###

Assay: Kinetic study: plasma kinetics of TMC278 after single IM or SC injection of a nanosuspension
Assay type: in vivo, male beagle dogs
Details: male, beagle, dog, plasma, sc, 5 mg/kg, plasma concentration of TMC278, single SC 5 mg/kg TMC278 nanosuspension, mean of 2 dogs, 1 h
measure.name: concentration at 1 h (ng/mL)
Write the number in ng/mL without appending the unit.

Query: Could you tell me which concentration at 1 h is on file for `Cc1cc(C=CC#N)cc(C)c1Nc1ccnc(Nc2ccc(C#N)cc2)n1` ?
Response: 1.5

###

Test: Kinetic study: plasma kinetics of TMC278 after single IM or SC injection of a nanosuspension
Format: in vivo, male beagle dogs
Settings: male, beagle, dog, plasma, sc, 5 mg/kg, plasma concentration of TMC278, single SC 5 mg/kg TMC278 nanosuspension, dog 19349, 1200 h (d50)
measure.name: concentration at 1200 h (ng/mL)
Use ng/mL as the unit, but write only the number.

Query: Suppose we examine the compound `Cc1cc(C=CC#N)cc(C)c1Nc1ccnc(Nc2ccc(C#N)cc2)n1` ; what concentration at 1200 h value has been reported?
Response: 3.4

###

Assay: Kinetic study: plasma kinetics of TMC278 after single IM or SC injection of a nanosuspension
Assay type: in vivo, male beagle dogs
Conditions: male, beagle, dog, plasma, intramuscular, 5 mg/kg, plasma concentration of TMC278, single IM 5 mg/kg TMC278 nanosuspension, dog 17264, 864 h (d36)
measure.name: concentration at 864 h (ng/mL)
Report the value in ng/mL with no unit label.

Query: Would you kindly share the measured concentration at 864 h for `Cc1cc(C=CC#N)cc(C)c1Nc1ccnc(Nc2ccc(C#N)cc2)n1` ?
Response: 7.33

###

Assay: Kinetic study: plasma kinetics of TMC278 after single IM or SC injection of a nanosuspension
Type: in vivo, male beagle dogs
Settings: male, beagle, dog, plasma, intramuscular, 5 mg/kg, plasma concentration of TMC278, single IM 5 mg/kg TMC278 nanosuspension, dog 17264, 0 h (d0, predose)
measure.name: concentration at 0 h

Query: I am curious: what concentration at 0 h value has been reported for Cc1cc(C=CC#N)cc(C)c1Nc1ccnc(Nc2ccc(C#N)cc2)n1 [TMC278] ?
Response: < 1 ng/mL

###

Test: Kinetic study: plasma kinetics of TMC278 after single IM or SC injection of a nanosuspension
Type: in vivo, male beagle dogs
Conditions: male, beagle, dog, plasma, sc, 5 mg/kg, plasma concentration of TMC278, single SC 5 mg/kg TMC278 nanosuspension, dog 19349, 1 h
measure.name: concentration at 1 h (ng/mL)
Give your result in ng/mL as a bare value.

Query: Which measured concentration at 1 h value corresponds to Cc1cc(C=CC#N)cc(C)c1Nc1ccnc(Nc2ccc(C#N)cc2)n1 [TMC278] ?
Response: 1.37

###

Test: Kinetic study: plasma kinetics of TMC278 after single IM or SC injection of a nanosuspension;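 note: healthy male beagle dogs injected in both biceps femoris muscles (IM) or both thoracal sides (SC), total volume 0.2 mL/kg, drug measured in plasma from blood samples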
Format: in vivo, male beagle dogs
Conditions: male, beagle, dog, plasma, sc, 5 mg/kg, plasma concentration of TMC278, single SC 5 mg/kg TMC278 nanosuspension, dog 19349, 24 h (d1)
measure.name: concentration at 24 h (ng/mL)
Record the value in ng/mL, omitting the unit from your answer.

Query: Name the reported concentration at 24 h value associated with the molecule `Cc1cc(C=CC#N)cc(C)c1Nc1ccnc(Nc2ccc(C#N)cc2)n1`
Response: 28.5
